Can you tell me Potency for the items I'm about to list?
- ASSAYED_TARGET: Glucocorticoid receptor (Homo sapiens) (UniProt P04150)
- Sequence (P04150 whole entry, looked up): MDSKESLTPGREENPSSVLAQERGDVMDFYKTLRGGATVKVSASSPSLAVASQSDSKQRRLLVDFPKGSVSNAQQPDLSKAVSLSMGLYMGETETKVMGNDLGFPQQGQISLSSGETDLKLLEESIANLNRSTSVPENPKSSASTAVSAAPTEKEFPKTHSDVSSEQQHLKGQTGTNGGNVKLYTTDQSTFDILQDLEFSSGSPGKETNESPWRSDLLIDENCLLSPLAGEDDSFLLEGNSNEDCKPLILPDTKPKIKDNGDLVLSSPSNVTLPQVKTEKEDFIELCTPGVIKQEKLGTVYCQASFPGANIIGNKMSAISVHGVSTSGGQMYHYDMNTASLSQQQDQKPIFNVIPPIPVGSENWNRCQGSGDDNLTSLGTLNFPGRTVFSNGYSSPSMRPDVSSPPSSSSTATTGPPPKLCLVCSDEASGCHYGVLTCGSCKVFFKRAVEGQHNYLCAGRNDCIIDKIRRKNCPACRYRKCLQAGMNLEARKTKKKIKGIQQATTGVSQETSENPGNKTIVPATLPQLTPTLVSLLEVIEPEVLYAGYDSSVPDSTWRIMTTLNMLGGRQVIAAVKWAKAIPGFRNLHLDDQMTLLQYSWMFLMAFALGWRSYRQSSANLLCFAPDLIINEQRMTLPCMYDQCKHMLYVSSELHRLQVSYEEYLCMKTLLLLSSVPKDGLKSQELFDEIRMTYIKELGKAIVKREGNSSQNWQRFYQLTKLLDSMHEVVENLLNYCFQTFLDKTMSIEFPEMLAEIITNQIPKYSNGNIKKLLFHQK
- ASSAY_TEXT: GR-GFP Redistribution (AID 450); further: potency means the concentration at half of the fitted maximal effect
- CONDITION_LABEL: U2OS GR-GFP nuclear translocation, laser cytometry, 2 h
Activity calls are given as the source filed them.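 How the source made its calls: active means compounds whose dose series gives a full or clear partial fitted curve of increased nuclear translocation; inconclusive means weak partial curve or effect only at the top dose; inactive means no dose-dependent translocation response.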

Given the entry Clc1ccccc1-c1nccc(-n2ccnc2)n1 , what Potency was observed with Glucocorticoid receptor (Homo sapiens) (UniProt P04150)?
> 46 µM (inactive)

Please do the same for CN1CCN(c2ncc3nc(-c4cccs4)c(=O)n(-c4ccccc4)c3n2)CC1 as well.
> 9.22 µM (inactive)

Please do the same for CN(C)c1ncc2nc(-c3cccs3)c(=O)n(C[C@H]3CCCO3)c2n1 as well.
> 9.22 µM (inactive)

Please do the same for CCNc1ncc2nc(C)c(=O)n(C3CC3)c2n1 as well.
> 9.22 µM (inactive)

Please do the same for CCNc1ncc2nc(-c3cccs3)c(=O)n(C)c2n1 as well.
> 9.22 µM (inactive)

Please do the same for CNc1cc(-c2c(C)noc2C)ncn1 as well.
> 46 µM (inactive)

Please do the same for Cc1cnc(CNc2ncncc2-c2ccccc2C#N)cn1 as well.
> 46 µM (inactive)

Please do the same for COc1cccc(-c2ccc3ncnc(NCc4cccs4)c3c2)c1 as well.
> 46 µM (inactive)

Please do the same for COCCNc1ncnc2ccc(-c3ccoc3)cc12 as well.
> 46 µM (inactive)

Please do the same for CN1CCN(c2ncc3ncc(=O)n(CCC#N)c3n2)CC1 as well.
> 9.22 µM (inactive)

Please do the same for N#CCCn1c(=O)c(-c2cc(F)cc(F)c2)nc2cnc(OCc3ccccc3)nc21 as well.
> 9.22 µM (inactive)

Please do the same for CCNc1ncc2nc(-c3ccccc3)c(=O)n(Cc3cccs3)c2n1 as well.
> 9.22 µM (inactive)

Please do the same for CN1CCN(c2ncc3nc(-c4cc(F)cc(F)c4)c(=O)n(CCc4ccccc4)c3n2)CC1 as well.
> 9.22 µM (inactive)

Please do the same for COc1ccccc1-c1cncnc1NCCN1CCOCC1 as well.
> 46 µM (inactive)

Please do the same for COc1ncc2nc(-c3ccc(F)cc3)c(=O)n(-c3ccccc3)c2n1 as well.
> 9.22 µM (inactive)

Please do the same for COc1ccccc1CNc1ccnc(-c2ccc3c(c2)OCO3)n1 as well.
> 46 µM (inactive)

Please do the same for O=c1cnc2cnc(Nc3ccccc3)nc2n1C1CC1 as well.
> 9.22 µM (inactive)

Please do the same for O=c1c(-c2ccc(F)cc2)nc2cnc(N3CCOCC3)nc2n1Cc1cccs1 as well.
> 9.22 µM (inactive)

Please do the same for CC(=O)NCCNc1ncnc2ccc(-c3c(C)noc3C)cc12 as well.
> 46 µM (inactive)

Please do the same for COc1ccc(-c2nc3cnc(Oc4ccccc4)nc3n(CCC#N)c2=O)cc1 as well.
> 9.22 µM (inactive)

Please do the same for COc1ccc(-n2c(=O)c(-c3cn(C)c4ccccc34)nc3cnc(OC)nc32)cc1 as well.
> 9.22 µM (inactive)

###

- ASSAY_TEXT: qHTS assay to identify inhibitors of the type 1 interferon - major histocompatibility complex class I in skeletal muscle: Counter screen cell viability and HiBit confirmation (AID 1347412); further: on the % scale 0 is the no-effect control and ±100 the full control effect; nearly all actives have a fitted effect of over 60% in size
- CONDITION_LABEL: iHSKM muscle cells + IFN-b, HiBiT or CellTiter-Glo, 24 h; Viability; at 45.9 µM (top of the series)
Records with an inconclusive call do not appear.
Decide by activity change, negative = inhibition: equal to or exceeding -10% means 1, less means -1.

Please indicate if the recorded activity change, negative = inhibition for C=C1C(=O)O[C@@H]2[C@H]3C(C)=CC[C@@]34O[C@@]4(C)CC[C@@H]12 meets or exceeds -10%.
1

Please do the same for Cc1ncsc1-c1ccc([C@H](C)NC(=O)[C@@H]2C[C@@H](O)CN2C(=O)[C@@H](NC(=O)COCCCOCCNC(=O)C[C@@H]2N=C(c3ccc(Cl)cc3)c3c(sc(C)c3C)-n3c(C)nnc32)C(C)(C)C)cc1 as well.
-1

Please do the same for CN(C)C/C=C/C(=O)Nc1ccc(C(=O)N2CCC[C@@H](Nc3ncc(Cl)c(-c4c[nH]c5ccccc45)n3)C2)cc1 as well.
1

Please do the same for C/C=C1\NC(=O)[C@H]2CSSCCC=C[C@H](CC(=O)N[C@H](C(C)C)C(=O)N2)OC(=O)[C@H](C(C)C)NC1=O as well.
-1

Please do the same for COc1cc(C(N)=O)ccc1NC(=O)[C@@H]1N[C@@H](CC(C)(C)C)[C@@]2(C(=O)Nc3cc(Cl)ccc32)[C@H]1c1cccc(Cl)c1F as well.
-1

Please do the same for Nc1nc2c(c(=O)[nH]1)N1CN(c3ccc(C(=O)N[C@@H](CCC(=O)O)C(=O)O)cc3)CC1CN2 (stereo partly drawn) as well.
-1

Please do the same for NC(=O)c1cnc2[nH]ccc2c1NC1C2CC3C[C@H]1CC(O)(C3)C2 (stereo partly drawn) as well.
-1
